Protocol: FT4 Powder Rheometer shear test (flow function)
Type: physicochemical
Conditions used: FT4, Table 2; FF=MPS/UYS
Structures can show the parent of a compound that is named as a salt.
Readout type: Flow Function

P: COC(=O)/C=C/C(=O)OC [2014-4281-A.8, dimethyl fumarate]
Q: COC(=O)/C=C/C(=O)OC [2014-4281-A.4, dimethyl fumarate]
Of P and Q , which one carries the higher reported Flow Function? Lab log: write the label of the selected item as the result.
Q

====

Protocol: FT4 Powder Rheometer dynamic testing (flow rate index, specific energy)
Assay type: physicochemical
Conditions used: FT4, Table 2; flow energy at 10 mm/s / 100 mm/s
Where a name gives a salt, the structure may show the parent alone.
Readout type: Flow Rate Index

INSERT INTO assay_data (molecule, readout_number) VALUES
  ('COC(=O)/C=C/C(=O)OC [2014-4281-A.8, dimethyl fumarate]', 1.37),
  ('COC(=O)/C=C/C(=O)OC [Batch B1417-140304, dimethyl fumarate]', 1.50),
  ('COC(=O)/C=C/C(=O)OC [2014-4281-A.9, dimethyl fumarate]', 1.33),
  ('COC(=O)/C=C/C(=O)OC [Batch A14DS1097, dimethyl fumarate]', 1.54);

I: COC(=O)/C=C/C(=O)OC [2014-4281-A.4, dimethyl fumarate]
II: COC(=O)/C=C/C(=O)OC [Batch A14DS0978, dimethyl fumarate]
Would you mind telling me which has the lower recorded Flow Rate Index between I and II ? Lab log: write the label of the selected item as the result.
I

====

Protocol: FT4 Powder Rheometer shear test (flow function)
Assay type: physicochemical
Conditions used: FT4, Table 2; FF=MPS/UYS
Counter-ions that a name gives are not always drawn.
Readout type: Flow Function

INSERT INTO results (compound, readout_type, readout_number) VALUES
  ('COC(=O)/C=C/C(=O)OC [2014-4281-A.9, dimethyl fumarate]', 'Flow Function', 2.50);

A: COC(=O)/C=C/C(=O)OC [Batch A14DS0978, dimethyl fumarate]
B: COC(=O)/C=C/C(=O)OC [Batch B1417-140304, dimethyl fumarate]
C: COC(=O)/C=C/C(=O)OC [Batch A14DS1097, dimethyl fumarate]
Ascending sort, Flow Function. Labels, requested order.
B, C, A
